Data credit: the supplement of paper PMC12350171

test system: Shigella flexneri; test: growth AUC normalised to DMSO control (fraction of control); higher = less growth inhibition, active = hit call of the paper; settings: 20 µM
Where a name gives a salt, the structure may show the parent alone.
Write down the outcome that applies. Available outcomes: Yes (active), No (inactive)

As a guide, the following entries are already answered.
COMPOUND: CC(Oc1ccccc1)C(=O)N[C@@H]1C(=O)N2[C@@H]1SC(C)(C)[C@@H]2C(=O)O (some centres undefined) [Phenethicillin potassium salt]
ASSAY_TARGET: Shigella flexneri
GROUP: No
--
COMPOUND: CCCCOc1cc(C(=O)NCCN(CC)CC)c2ccccc2n1
ASSAY_TARGET: Shigella flexneri
GROUP: No
--
COMPOUND: CCN(CC)CCNC(=O)COc1ccc(OC)cc1 [Mefexamide hydrochloride]
ASSAY_TARGET: Shigella flexneri
GROUP: No

Dear all, I need the recorded test outcome for CC(C(=O)O)c1ccc(-c2ccccc2)c(F)c1 (centres undefined) , thank you. No

Dear all, I need the recorded test outcome for CC(=O)[C@H]1CC[C@H]2[C@@H]3CC=C4C[C@@H](O)CC[C@]4(C)[C@H]3CC[C@]12C , thank you. No

Dear all, I need the recorded test outcome for Cc1ccccc1OCC(O)CO (centres undefined) , thank you. No

Dear all, I need the recorded test outcome for CCOC(=O)[C@H](CCc1ccccc1)N[C@@H](C)C(=O)N1CCC[C@H]1C(=O)O [Enalapril maleate] , thank you. No

Dear all, I need the recorded test outcome for Nc1nc(=S)c2ncn([C@@H]3O[C@H](CO)[C@@H](O)[C@H]3O)c2[nH]1 , thank you. Yes

Dear all, I need the recorded test outcome for O=C(O)COC(=O)Cc1ccccc1Nc1c(Cl)cccc1Cl , thank you. No

* * *

system: S. enterica typhimurium WT; assay: growth AUC normalised to DMSO control (median) (fraction of control); higher = less growth inhibition, active = hit call of the paper; settings: 20 µM;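 note: active when median AUC fell below 0.1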
Structures can show the parent of a compound that is named as a salt.
In this section we review reported growth AUC normalised to DMSO control values for a set of molecules.
// return a plain number; no unit text

Recorded growth AUC normalised to DMSO control, per entry:
MOLECULE: NC(=O)N1c2ccccc2CC(=O)c2ccccc21 [Oxcarbazepine]
growth AUC normalised to DMSO control: 0.999

MOLECULE: COC(=O)C1=C(C)NC(C)=C(C(=O)OCCN2CCN(C(c3ccccc3)c3ccccc3)CC2)C1c1cccc([N+](=O)[O-])c1 (configuration not stated) [Manidipine Dihydrochloride]
growth AUC normalised to DMSO control: 0.999

MOLECULE: CCOC(=O)OC(C)OC(=O)[C@@H]1N2C(=O)[C@@H](NC(=O)[C@H](N)c3ccccc3)[C@H]2SC1(C)C (some centres not stated) [Bacampicillin hydrochloride]
growth AUC normalised to DMSO control: 0.154

Form field - read-out: growth AUC normalised to DMSO control; system: S. enterica typhimurium WT; submitted item: C=CCc1ccccc1OCC(O)CNC(C)C (configuration not stated) [Alprenolol hydrochloride] 0.995

Form field - read-out: growth AUC normalised to DMSO control; system: S. enterica typhimurium WT; submitted item: Cc1cc(CC(=O)O)n(C)c1C(=O)c1ccc(Cl)cc1 [Zomepirac sodium salt] 0.991

Form field - read-out: growth AUC normalised to DMSO control; system: S. enterica typhimurium WT; submitted item: CO[C@H]1/C=C/O[C@@]2(C)Oc3c(C)c(O)c4c(O)c(c(/C=N/N5CCN(C6CCCC6)CC5)c(O)c4c3C2=O)NC(=O)/C(C)=C\C=C\[C@H](C)[C@H](O)[C@@H](C)[C@@H](O)[C@@H](C)[C@H](OC(C)=O)[C@@H]1C 0.78

Form field - read-out: growth AUC normalised to DMSO control; system: S. enterica typhimurium WT; submitted item: NC(=O)OCC(O)COc1ccc(Cl)cc1 (configuration not stated) [Chlorphensin carbamate] 1.02
